- system: FIXa (Homo sapiens, UniProt P00740)
- Sequence (P00740 47-191 limits assumed): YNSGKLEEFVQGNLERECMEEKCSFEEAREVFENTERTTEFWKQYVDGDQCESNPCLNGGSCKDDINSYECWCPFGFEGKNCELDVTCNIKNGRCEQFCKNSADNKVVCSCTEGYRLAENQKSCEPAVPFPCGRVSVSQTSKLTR
- Sequence (P00740 227-461 limits assumed): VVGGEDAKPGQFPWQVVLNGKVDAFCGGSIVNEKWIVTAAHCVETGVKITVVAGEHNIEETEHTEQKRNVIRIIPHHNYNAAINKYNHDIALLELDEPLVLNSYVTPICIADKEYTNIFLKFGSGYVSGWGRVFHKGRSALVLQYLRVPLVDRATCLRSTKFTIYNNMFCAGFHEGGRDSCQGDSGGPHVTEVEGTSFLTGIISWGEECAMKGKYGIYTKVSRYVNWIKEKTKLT
- measurement-protocol: FXa generation assay with human FIXa
- Type: biochemical
- Parameters: purchased Haematologic Technologies
- details: FXa generation assay using human FIXa; class symbols

substance	system	Vmax
NGGMQKPACLASQCWLFANPLP	FIXa (Homo sapiens, UniProt P00740)	(++) ((++) 1-2)
DAGPNKLRCLASYCQLFGGGHA	FIXa (Homo sapiens, UniProt P00740)	(+) ((+)<1)
RGRSAKLRCLASYCWLFFTVIL	FIXa (Homo sapiens, UniProt P00740)	(+++) ((+++)>2)
RFQTTQLTCLGSASCLFNLSVR	FIXa (Homo sapiens, UniProt P00740)	(+) ((+)<1)
RQLWNKLTCLASYCALIGLSGT	FIXa (Homo sapiens, UniProt P00740)	(++) ((++) 1-2)
HDSLDQLTCLASVCQLASMGAR	FIXa (Homo sapiens, UniProt P00740)	(+) ((+)<1)
KGAYQKLTCLASYCLLFLLTAQ	FIXa (Homo sapiens, UniProt P00740)	(++) ((++) 1-2)
NLTGRASYGWLP	FIXa (Homo sapiens, UniProt P00740)	(+) ((+)<1)
APPGGKRMCLVSGCQLFPWSAS	FIXa (Homo sapiens, UniProt P00740)	(+) ((+)<1)
GASSDKLTCRTRHCSMFQPLSV	FIXa (Homo sapiens, UniProt P00740)	(+) ((+)<1)
QDGVEKLTCLASYCWRFGDHGA	FIXa (Homo sapiens, UniProt P00740)	(+) ((+)<1)
KLTCLVSYCWLF	FIXa (Homo sapiens, UniProt P00740)	(+++) ((+++)>2)
GVEDRQLTCLASSCWVFSRHSV	FIXa (Homo sapiens, UniProt P00740)	(++) ((++) 1-2)
RSFTSELTCLASSCRRFHHVPP	FIXa (Homo sapiens, UniProt P00740)	(+) ((+)<1)
KLKCLASYCWLF	FIXa (Homo sapiens, UniProt P00740)	(++++) ((++++)>3)
VAHYGKVTCLASYCQPLPSVGA	FIXa (Homo sapiens, UniProt P00740)	(+) ((+)<1)
RHSNHNLTCQASYCWLLPAGLQ	FIXa (Homo sapiens, UniProt P00740)	(+) ((+)<1)
ERYRLDMTCMASQCWQFPPAAG	FIXa (Homo sapiens, UniProt P00740)	(++) ((++) 1-2)
KLTCLASYCWLK	FIXa (Homo sapiens, UniProt P00740)	(+) ((+)<1)
LQELTKLTCLARSGWLVCNPGY	FIXa (Homo sapiens, UniProt P00740)	(+) ((+)<1)
GEGGGKLSCVAIQCGLFKGLGR	FIXa (Homo sapiens, UniProt P00740)	(+) ((+)<1)
NPTCQASYCQLF	FIXa (Homo sapiens, UniProt P00740)	(+) ((+)<1)
KKTCLASYCWLF	FIXa (Homo sapiens, UniProt P00740)	(++) ((++) 1-2)
QDGDGKLTCRASYCRRFLVGVH	FIXa (Homo sapiens, UniProt P00740)	(+) ((+)<1)
KLTCLASKCWLF	FIXa (Homo sapiens, UniProt P00740)	(+) ((+)<1)
KLTCLASYCLLF	FIXa (Homo sapiens, UniProt P00740)	(+++) ((+++)>2)
QLTCLASYCGGV	FIXa (Homo sapiens, UniProt P00740)	(+) ((+)<1)
HLGSPKLTCGASQCWLLNHEVS	FIXa (Homo sapiens, UniProt P00740)	(+) ((+)<1)
LLHAQKLSCLASYCWVFDAEWD	FIXa (Homo sapiens, UniProt P00740)	(+) ((+)<1)
SYGRTKLTCLASSCWLFGQVHG	FIXa (Homo sapiens, UniProt P00740)	(+) ((+)<1)
k-MeLeu-TCLASYCWLF	FIXa (Homo sapiens, UniProt P00740)	(++++) ((++++)>3)
AVAINKVPCVASYCQLFESKIH	FIXa (Homo sapiens, UniProt P00740)	(+) ((+)<1)
SGGSGKLTCLASYCWPFGSQVR	FIXa (Homo sapiens, UniProt P00740)	(+) ((+)<1)
GGALQQLTCPASYCWLFPMEHS	FIXa (Homo sapiens, UniProt P00740)	(+) ((+)<1)

* * *

- system: FIXa (Homo sapiens, UniProt P00740)
- measurement-protocol: FXa generation assay with human FIXa
- Assay type: biochemical
- Parameters: purchased Haematologic Technologies
- details: FXa generation assay, 10 nM hFIXa, 100 nM hFX; class symbols
measured-endpoint: Vmax

substance	observed-value
PRSRTVGPGSRSASGKSTCLASYCWLFWTGIA	(++++) ((++++)>3)
k-MeLeu-TCLASYCWLF [Compound 2]	(++++) ((++++)>3)
PRIRTVGPGSRSASGKSTCLASYCWLFWTGIA	(++++) ((++++)>3)
PRIRTSGPGSRSASGKLTCLASYCWLFWTGIA	(++++) ((++++)>3)
PRSRTVGPGSRSASGKLTCLASYCWLFWTGIA	(++++) ((++++)>3)
PRIRTVGPSSRSASGKLTCLASYCWLFWTGIA	(++++) ((++++)>3)
SRSRTVSPGSRSASGKSTCLASYCWLFWTGIA	(++++) ((++++)>3)
RRAPGKLTCLASYCWLFWTGIA [Compound 4]	(+++) ((+++)>2)
PRIrTVGPGSrSASGKLTCLASYCWLFWTGIA [Compound 23]	(++++) ((++++)>3)
PRISTVGPGSRSASGKLTCLASYCWLFWTGIA	(++++) ((++++)>3)
PSIRTVGPGSRSASGKLTCLASYCWLFWTGIA	(++++) ((++++)>3)
KLTCLASYCWLF [Compound 1]	(+++) ((+++)>2)
PRIrTVGPGSrSASGKSTCLASYCWLFWTGIA [Compound 24]	(++++) ((++++)>3)

* * *

A collection of substances and their measured Km
- system: FIXa (Homo sapiens, UniProt P00740)
- measurement-protocol: Km/Kcat of FIXa for the substrate FX (FXa generation assay)
- Assay type: biochemical
- Parameters: purchased Haematologic Technologies
- details: hFIXa 10 nM, FX 10-1000 nM, PL, CaCl2; compound 1 3 μM, compounds 3, 4, 5 1 μM, compound C 10 μM
- Method: To determine the Km and Kcat of FIXa or FVIIa for the substrate FX, the FXa generation assay described above was used with the following modifications. […] Reactions were set up with varying concentrations of FX ranging between 400 and 0.8 nM and the rates of FXa generation were determined for each peptide at the different FX concentrations tested as described above. […] The catalytic constant (Kcat) was calculated by normalizing the Vmax to the enzyme concentration. […]

substance	Km, µM
RRAPGKLTCLASYCWLFWTGIA [Compound 4]	0.011
KLTCLASYCWLF [Compound 1]	0.024
RRAPGKLQCLASYCWLFWTGIA [Compound 3]	0.016
rRAPGKLTCLASYCWLFWTGIA [Compound 5]	0.011

* * *

- system: FIXa (Homo sapiens, UniProt P00740)
- measurement-protocol: FXa generation assay with human FIXa
- Type: biochemical
- Parameters: purchased Haematologic Technologies
- details: FXa generation assay using human FIXa; class symbols

seq	Vmax
KLTCLASYCWIF	(+++) ((+++)>2)
KLTCLASYCQLV	(+++) ((+++)>2)
KLSCQAGQCWVF	(+++) ((+++)>2)
